Molecular target: IGF2 (human, UniProt P01344)
Assay: ELISA
binders and their reported pEC50
Friendly reminder that pEC50 comes from taking -log10 of the concentration in mol/L.

binder: DVD042 IGF1,2 arm (antibody, V domains shown, DVD-Ig outer) VH: QVQLVQSGAEVKKPGASVKVSCKASGYTFTSYDINWVRQATGQGLEWMGWMNPNSGNTGYAQKFQGRVTMTRNTSISTAYMELSSLRSEDTAVYYCARDPYYYYYGMDVWGQGTTVTVSS VL: QSVLTQPPSVSAAPGQKVTISCSGSSSNIENNHVSWYQQLPGTAPKLLIYDNNKRPSGIPDRFSGSKSGTSATLGITGLQTGDEADYYCETWDTSLSAGRVFGGGTKLTVLG
pEC50: 7.75

// returns reported pEC50 for input DVD041 IGF1,2 arm (antibody, V domains shown, DVD-Ig inner) VH: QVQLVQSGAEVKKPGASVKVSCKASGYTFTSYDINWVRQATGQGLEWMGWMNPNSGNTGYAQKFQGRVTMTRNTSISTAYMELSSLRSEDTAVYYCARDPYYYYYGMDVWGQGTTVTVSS VL: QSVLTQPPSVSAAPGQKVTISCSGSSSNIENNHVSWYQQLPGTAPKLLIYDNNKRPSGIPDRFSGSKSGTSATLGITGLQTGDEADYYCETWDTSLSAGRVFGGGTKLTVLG
5.13

// returns reported pEC50 for input DVD030 IGF1,2 arm (antibody, V domains shown, DVD-Ig outer) VH: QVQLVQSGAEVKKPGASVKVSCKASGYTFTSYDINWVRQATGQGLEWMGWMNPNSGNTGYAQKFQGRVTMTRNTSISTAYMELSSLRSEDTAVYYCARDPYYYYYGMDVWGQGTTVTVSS VL: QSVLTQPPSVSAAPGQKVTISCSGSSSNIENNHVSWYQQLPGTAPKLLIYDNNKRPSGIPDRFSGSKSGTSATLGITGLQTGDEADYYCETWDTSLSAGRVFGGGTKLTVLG
8.26
